aptazyme ON/OFF ratio values for the variants below.
B1: Pistol ribozyme (parent)
chain: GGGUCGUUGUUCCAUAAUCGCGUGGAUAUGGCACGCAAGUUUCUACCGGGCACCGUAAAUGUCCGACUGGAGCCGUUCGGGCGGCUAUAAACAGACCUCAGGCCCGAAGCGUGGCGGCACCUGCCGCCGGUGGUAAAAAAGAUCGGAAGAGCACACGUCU

variants of: B1; test: aptazyme ON/OFF ratio, guanine; higher = stronger switching; co-transcriptional cleavage with and without guanine
measure-name: aptazyme ON/OFF ratio

>>> experimental_result("U7C G9C U10C U11G C12A C13G")
1.05
>>> experimental_result("U7A U8A G9C U10C U11C C12U")
1.02
>>> experimental_result("U7G U8A G9A U10C C12U C13G")
1.07
>>> experimental_result("U7G U8C G9U U11C C12A C13U")
1.23
>>> experimental_result("U7A U8C U10C U11G C12A C13A")
1.33
>>> experimental_result("U8G G9A U11C C12A C13A")
1.34
>>> experimental_result("G9U U10G C12G C13A")
1.44
>>> experimental_result("U8A G9C U10C C13U")
1.06
>>> experimental_result("U8A G9U U11C C12G C13U")
1.16
>>> experimental_result("U7A G9C U10A C12G")
1.13
>>> experimental_result("U8G G9U U10A U11C C12A C13G")
1.1

Attribution: the RNAGym collection of RNA variant scans (doi:10.1021/acssynbio.7b00057)
